# experimentSummary: total protein half-life in vivo (active degradation + dilution); higher = more stable protein
# cond: wild type E. coli NCM3722; growth: C-lim chemostat; doubling time 12 h
experimentalEndpoint: total protein half-life in vivo (h)
Give the number; h is assumed, so skip it.

## Task // returns reported total protein half-life in vivo for input MVINCAFIGFGKSTTRYHLPYVLNRKDSWHVAHIFRRHAKPEEQAPIYSHIHFTSDLDEVLNDPDVKLVVVCTHADSHFEYAKRALEAGKNVLVEKPFTPTLAQAKELFALAKSKGLTVTPYQNRRFDSCFLTAKKAIESGKLGEIVEVESHFDYYRPVAETKPGLPQDGAFYGLGVHTMDQIISLFGRPDHVAYDIRSLRNKANPDDTFEAQLFYGDLKAIVKTSHLVKIDYPKFIVHGKKGSFIKYGIDQQETSLKANIMPGEPGFAADDSVGVLEYVNDEGVTVREEMKPEMGDYGRVYDALYQTITHGAPNYVKESEVLTNLEILERGFEQASPSTVTLAK
## Result 11.6

## Task // returns reported total protein half-life in vivo for input MKKVLIAALIAGFSLSATAAETIRFATEASYPPFESIDANNQIVGFDVDLAQALCKEIDATCTFSNQAFDSLIPSLKFRRVEAVMAGMDITPEREKQVLFTTPYYDNSALFVGQQGKYTSVDQLKGKKVGVQNGTTHQKFIMDKHPEITTVPYDSYQNAKLDLQNGRIDGVFGDTAVVTEWLKDNPKLAAVGDKVTDKDYFGTGLGIAVRQGNTELQQKLNTALEKVKKDGTYETIYNKWFQK
## Result 11.6

## Task // returns reported total protein half-life in vivo for input MFPEYRDLISRLKNENPRFMSLFDKHNKLDHEIARKEGSDGRGYNAEVVRMKKQKLQLKDEMLKILQQESVKEV [P0ACW6]
## Result 1.75
